Every entry's value here was drawn from ChEMBL document CHEMBL1134611.

test system: B1 bradykinin receptor (Rattus norvegicus) (UniProt P97583)
protocol notes: Agonistic activity against Bradykinin receptor B1 of rat ileum longitudinal smooth muscle
Assay type: functional, tissue-based
Square brackets hold non-standard residues; d marks the D form. Peptide text beside a SMILES is read from it. 12Ado = NCCCCCCCCCCCC(=O)O; Ac8c = NC1(C(=O)O)CCCCCCC1; Ac7c = NC1(C(=O)O)CCCCCC1; Ac6c = NC1(C(=O)O)CCCCC1
Reported pD2 values for the following compounds.
assay metric: pD2

>>> endpoint_result("NCCCC[C@H](N)C(=O)N[C@@H](CCCN=C(N)N)C(=O)NCC(=O)NC1(C(=O)NCC(=O)N[C@@H](CO)C(=O)N2CCC[C@H]2C(=O)N[C@@H](Cc2ccccc2)C(=O)O)CCCCCCC1 (H-KRG[Ac8c]GSPF-OH)")
5.7
>>> endpoint_result("NCCCC[C@H](N)C(=O)N[C@@H](CCCN=C(N)N)C(=O)NCC(=O)NC1(C(=O)NCC(=O)N[C@@H](CO)C(=O)N2CCC[C@H]2C(=O)N[C@@H](Cc2ccccc2)C(=O)O)CCCCC1 (H-KRG[Ac6c]GSPF-OH)")
5.1
>>> endpoint_result("NCCCC[C@H](N)C(=O)N[C@@H](CCCN=C(N)N)C(=O)NCCCCCCCCCCCC(=O)N[C@@H](CO)C(=O)N1CCC[C@H]1C(=O)N[C@@H](Cc1ccccc1)C(=O)O (H-KR[12Ado]SPF-OH)")
6
>>> endpoint_result("NCCCC[C@H](N)C(=O)N[C@@H](CCCN=C(N)N)C(=O)NCC(=O)NC1(C(=O)NCC(=O)N[C@@H](CO)C(=O)N2CCC[C@H]2C(=O)N[C@@H](Cc2ccccc2)C(=O)O)CCCCCC1 (H-KRG[Ac7c]GSPF-OH)")
5.4

====

test system: B1 bradykinin receptor (Rattus norvegicus)
Sequence (whole entry): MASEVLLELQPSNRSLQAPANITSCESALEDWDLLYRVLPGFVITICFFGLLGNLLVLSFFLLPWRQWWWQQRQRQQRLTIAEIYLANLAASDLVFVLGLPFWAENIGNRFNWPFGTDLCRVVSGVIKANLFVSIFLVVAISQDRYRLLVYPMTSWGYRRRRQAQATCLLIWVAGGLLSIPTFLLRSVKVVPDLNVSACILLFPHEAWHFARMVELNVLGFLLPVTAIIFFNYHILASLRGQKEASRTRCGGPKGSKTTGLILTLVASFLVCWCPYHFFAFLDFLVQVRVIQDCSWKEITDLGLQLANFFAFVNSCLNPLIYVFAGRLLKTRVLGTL
protocol notes: Agonistic activity against Bradykinin receptor B1 of rat ileum longitudinal smooth muscle
Format: functional, tissue-based
Numbered stars: 1 amine (or outer) side, 2 acyl side, 3 side chain; on linkers, the order of the positions; unused ones are H or OH. Square brackets hold non-standard residues; d marks the D form. Peptide text beside a SMILES is read from it. X2 = O=C(C1(N[*:1])CCCCCCCCCCC1)[*:2]; X1 = O=C(C1(N[*:1])CCCCCCCC1)[*:2]
assay metric: pD2

>>> endpoint_result("NCCCC[C@H](N)C(=O)N[C@@H](CCCN=C(N)N)C(=O)NCC(=O)NC1(C(=O)NCC(=O)N[C@@H](CO)C(=O)N2CCC[C@H]2C(=O)N[C@@H](Cc2ccccc2)C(=O)O)CCCCCCCCCCC1 (H-KRG[X2]GSPF-OH)")
5.5
>>> endpoint_result("NCCCC[C@H](N)C(=O)N[C@@H](CCCN=C(N)N)C(=O)NCC(=O)NC1(C(=O)NCC(=O)N[C@@H](CO)C(=O)N2CCC[C@H]2C(=O)N[C@@H](Cc2ccccc2)C(=O)O)CCCCCCCC1 (H-KRG[X1]GSPF-OH)")
5.4
